Source of measurements: the supplement of paper PMC10724198

# Tested on: Saccharomyces cerevisiae;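 note: PSI is a weighted mean of sequencing reads over stability bins, variants kept only with over 10 reads, mCherry proximal and sfGFP distal, peptide attached via GGGS linker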
# test.protocol: protein stability index of tFT-peptide fusion (C-terminal peptide) (PSI (0-1 scale)); higher = more stable (slower turnover)
# measurement.context: genetic background: wild type; temperature: 30 C
Could you label it rule met if measured protein stability index is 0.7 or higher, and rule not met otherwise?

{"macromolecule.sequence": "PRALCPSSPPSR", "discrete.label": "rule met"}
{"macromolecule.sequence": "VYMDKKNKCIMK", "discrete.label": "rule met"}
{"macromolecule.sequence": "LSPPPLSPPSHP", "discrete.label": "rule met"}
{"macromolecule.sequence": "VHVSRHGSSIAF", "discrete.label": "rule met"}
{"macromolecule.sequence": "NDKGKKTKIKIV", "discrete.label": "rule not met"}
{"macromolecule.sequence": "IEKYRKNKKTGK", "discrete.label": "rule not met"}
{"macromolecule.sequence": "GGVFTHLEKAVD", "discrete.label": "rule not met"}
{"macromolecule.sequence": "PGLIPSPRYLLP", "discrete.label": "rule not met"}
{"macromolecule.sequence": "SLWIKRSPVFSF", "discrete.label": "rule not met"}
{"macromolecule.sequence": "PPPPSPPPPSTT", "discrete.label": "rule met"}
{"macromolecule.sequence": "APPFNPSRLSRP", "discrete.label": "rule met"}
{"macromolecule.sequence": "SPGFSPPFPPLS", "discrete.label": "rule met"}
{"macromolecule.sequence": "IKKKNRKERQKK", "discrete.label": "rule not met"}
{"macromolecule.sequence": "VQCSLWYARLIL", "discrete.label": "rule not met"}
{"macromolecule.sequence": "GEGVVRGDGVRG", "discrete.label": "rule not met"}
{"macromolecule.sequence": "PASPPTSPRSVP", "discrete.label": "rule met"}
{"macromolecule.sequence": "VVCKVLVTGIFD", "discrete.label": "rule not met"}
{"macromolecule.sequence": "LSPLPPPAGHLP", "discrete.label": "rule not met"}
{"macromolecule.sequence": "LTHTVLVGSALN", "discrete.label": "rule not met"}
{"macromolecule.sequence": "PFSLPPPHLWSI", "discrete.label": "rule met"}
{"macromolecule.sequence": "VFCGRVVVGSVV", "discrete.label": "rule not met"}
{"macromolecule.sequence": "VFESGRYLRVAP", "discrete.label": "rule met"}
{"macromolecule.sequence": "RRSASRQFLLNP", "discrete.label": "rule met"}
{"macromolecule.sequence": "PLDAPDTRVWEI", "discrete.label": "rule met"}
{"macromolecule.sequence": "HLPPSRPSFSAP", "discrete.label": "rule met"}
{"macromolecule.sequence": "WSRVQFFYFCWI", "discrete.label": "rule not met"}
{"macromolecule.sequence": "EAEEVGRVVLKG", "discrete.label": "rule not met"}
{"macromolecule.sequence": "VNRDYLGTNKSS", "discrete.label": "rule not met"}
{"macromolecule.sequence": "RGSPFTAWSVLR", "discrete.label": "rule met"}
{"macromolecule.sequence": "LPPSTFLLHFLL", "discrete.label": "rule not met"}
{"macromolecule.sequence": "VSFNPAGYKSRN", "discrete.label": "rule not met"}
{"macromolecule.sequence": "SLQRLALLRGPP", "discrete.label": "rule met"}
{"macromolecule.sequence": "AVLRVCHVEVVP", "discrete.label": "rule not met"}
{"macromolecule.sequence": "LPFRLARLSQEG", "discrete.label": "rule met"}
{"macromolecule.sequence": "FTSGNSWLAVFL", "discrete.label": "rule met"}
{"macromolecule.sequence": "AGRVGRRGPPNR", "discrete.label": "rule not met"}
{"macromolecule.sequence": "LRGLRALRGDLT", "discrete.label": "rule not met"}
{"macromolecule.sequence": "SPCFLDPPRLIS", "discrete.label": "rule not met"}
{"macromolecule.sequence": "SNAIKTEESKGE", "discrete.label": "rule met"}
{"macromolecule.sequence": "SPLSDPPPYRPP", "discrete.label": "rule not met"}
{"macromolecule.sequence": "SFWWGGWGVGPD", "discrete.label": "rule met"}
{"macromolecule.sequence": "VSWFVGFCLWFP", "discrete.label": "rule not met"}
{"macromolecule.sequence": "SLFSPPVLATPS", "discrete.label": "rule not met"}
{"macromolecule.sequence": "VIWAPVLAFSVR", "discrete.label": "rule not met"}
{"macromolecule.sequence": "VLGRCWWIVSDL", "discrete.label": "rule not met"}
{"macromolecule.sequence": "SPLPPSPPPLLF", "discrete.label": "rule met"}
{"macromolecule.sequence": "PPPCPHRDGTSP", "discrete.label": "rule not met"}
{"macromolecule.sequence": "LSPGQVLPWGVL", "discrete.label": "rule not met"}
{"macromolecule.sequence": "SDKGKSSVSGSN", "discrete.label": "rule not met"}
{"macromolecule.sequence": "LTCTSTPMACRV", "discrete.label": "rule not met"}
{"macromolecule.sequence": "LPPSSLTLSPSS", "discrete.label": "rule not met"}
{"macromolecule.sequence": "KKPHKTKGICYT", "discrete.label": "rule not met"}
{"macromolecule.sequence": "ISIVKENSSLTC", "discrete.label": "rule not met"}
{"macromolecule.sequence": "RMEGCRLSLGVP", "discrete.label": "rule not met"}
{"macromolecule.sequence": "SSERVLVRRRGS", "discrete.label": "rule not met"}
{"macromolecule.sequence": "VRGLYEHSLGSR", "discrete.label": "rule met"}
{"macromolecule.sequence": "RRRMVYPLPPTL", "discrete.label": "rule not met"}
